system: Influenza A virus; assay: Antiviral activity against […] influenza A H5N1 pseudotyped virus infected in A549 cells assessed as inhibition of viral entry incubated for 48 hrs by measuring luciferase activity by Neolite reporter gene assay; type: functional, organism-based; conditions: H5N1, A549, 48 h
# note: boundary value 40 µM maps to 0 (no); IC50 below it maps to 1 (yes)

The following compounds have reported results that may help.
- COCCCCOc1ccc(-c2nc3ncccn3c2NC2CCCCC2)cc1: 0 (no)
- FC(F)(F)c1cc(Br)ccc1-c1nc2ncccn2c1NC1CCCCC1: 1 (yes)
- Clc1ccc(-c2nc3ncccn3c2NC2CCCCC2)cc1: 0 (no)
- Cc1cc(Br)ccc1-c1nc2ncccn2c1Nc1ccccc1: 0 (no)

Lab log: compare recorded IC50 with 40 µM; is it strictly lower for Fc1ccc(-c2nc3ncccn3c2NC2CCCCC2)cc1 ? 0 (no)

Another compound to look at: COc1ccccc1-c1nc2ncccn2c1NC1CCCCC1 0 (no)

Request: CCCCOc1ccc(-c2nc3ncccn3c2NC2CCCCC2)cc1 0 (no)

---

Measured selectivity ratio of individual entries
assay: Selectivity index, ratio of CC50 for human A549 cells to IC50 for […] influenza A H5N1 pseudotyped virus infected in A549 cells; assay type: toxicity, cell-based; conditions: read-out: Ratio CC50/IC50
Note: the reply should be a number with no unit written.

Example entries and their recorded answers appear below.
* FC(F)(F)c1cc(Br)ccc1-c1nc2ncccn2c1NC1CCCCC1 | 1
* CCCCOc1ccc(-c2nc3ncccn3c2NC2CCCCC2)cc1 | 1

Shift focus to the following entry.
Recorded selectivity ratio for COCCCCOc1ccc(-c2nc3ncccn3c2NC2CCCCC2)cc1 , please? 1

---

system: Influenza A virus; assay: Antiviral activity against group 2 influenza A H7N1 pseudotyped virus infected in A549 cells assessed as inhibition of viral entry incubated for 48 hrs by measuring luciferase activity by Neolite reporter gene assay; assay type: functional, organism-based; conditions: H7N1, A549, 48 h
TEST_READOUT: pIC50
Hey, just a heads up that pIC50 is the negative log base 10 of the concentration in molar.

Could you share which pIC50 value was measured for FC(F)(F)c1cc(Br)ccc1-c1nc2ncccn2c1NC1CCCCC1 ? 5.85

Then this molecule: c1ccc(-c2nc3ncccn3c2NC2CCCCC2)cc1 6.18

Now consider CCCCOc1ccc(-c2nc3ncccn3c2NCc2ccc3ccccc3c2)cc1 and answer again. 5.22

Another molecule to check: COCCCCOc1ccc(-c2nc3ncccn3c2NC2CCCCC2)cc1 6.60

# repeat for CCCCOc1ccc(-c2nc3ncccn3c2NCc2ccc(OC)cc2)cc1 4.85

Next molecule: CCCCOc1ccc(-c2nc3ncccn3c2Nc2ccccc2)cc1 4.00

Another molecule: CC(C)(C)CC(C)(C)Nc1c(-c2ccc(Br)cc2)nc2ncccn12 6.00

Same read-out for Cc1cc(C)n2c(Nc3ccc4c(c3)OCCO4)c(-c3cccc(Br)c3)nc2n1 ? 6.60

Same read-out for CCNC(=O)CCCOc1ccc(-c2nc3ncccn3c2NC2CCCCC2)cc1 ? 7.19

Again, but for CCCCOc1ccc(-c2nc3ncccn3c2NCc2ccccn2)cc1 4.80

---

experiment: Cytotoxicity against human A549 cells incubated for 48 hrs by celltiter-glo luminescent cell viability assay; format: toxicity, cell-based
Reported CC50 at 48 h values are given for each entry in this list.
Numbers only here, please. The scale is µM.

# count of solved cases: 5
• Oc1cccc(-c2nc3ncccn3c2NC2CCCCC2)c1 = 100
• CC(C)(C)CC(C)(C)Nc1c(-c2ccc(Br)cc2)nc2ncccn12 = 32
• CCCCOc1ccc(-c2nc3ncccn3c2NC(C)C)cc1 = 68
• c1ccc(-c2nc3ncccn3c2NC2CCCCC2)cc1 = 100
• Fc1ccc(COc2ccc(-c3nc4ncccn4c3NC3CCCCC3)cc2)cc1 = 24

// moving on: another record for CC50 at 48 h
Which CC50 at 48 h is reported for this molecule? CCCCOc1ccc(-c2nc3ncccn3c2NC2CCCC2)cc1 40
